- ASSAY_INFO: Toxicity to brine shrimp Artemia
- Assay type: in vivo, Artemia salina
- STATED_CONDITIONS: Artemia salina (brine shrimp), in vivo, other: immersion in test solution; 12 h; read-out: Lethal activity to Artemia LC50
Reported LC50 at 12 h values for the following molecules.
QUANTITY_NAME: LC50 at 12 h (µg/mL)

>>> meas_value("COc1cc2cc(C(=O)Nc3ccc(Br)cc3)c(=O)oc2cc1O")
32.3
>>> meas_value("COc1cc2cc(C(=O)Nc3ccc(Br)cc3)c(=O)oc2cc1OS(=O)(=O)c1ccc(Cl)cc1")
39.4
>>> meas_value("COc1cc2ccc(=O)oc2cc1OS(=O)(=O)c1cccs1")
45.1
>>> meas_value("COc1cc2ccc(=O)oc2cc1OS(=O)(=O)c1ccc(F)cc1")
56.3
>>> meas_value("COc1cc2cc(-c3ccc(F)cc3)c(=O)oc2cc1OS(=O)(=O)c1ccc2ccccc2c1")
29.7
>>> meas_value("COc1ccc(S(=O)(=O)Oc2cc3oc(=O)c(-c4ccc(F)cc4)cc3cc2OC)cc1")
36.2
>>> meas_value("COc1cc2cc(-c3ccc(F)cc3)c(=O)oc2cc1OS(=O)(=O)c1ccc(Br)cc1")
79.5
>>> meas_value("COc1cc2cc(-c3ccc(F)cc3)c(=O)oc2cc1OS(=O)(=O)c1ccc(C(F)(F)F)cc1")
39.9
>>> meas_value("COc1cc2ccc(=O)oc2cc1OS(=O)(=O)c1ccc(Cl)cc1")
16
>>> meas_value("COc1cc2cc(C(C)=O)c(=O)oc2cc1O")
35.6
